Give melting point for every item shown.

Return melting point for the following compound: CCOC(=O)Nc1cc2c(cn1)[nH]c1ccccc12 [Compound 23, 3-[(ethoxycarbonyl)amino]-β-carboline]
221 to 223 °C

Name the recorded melting point of the item CCOC(=O)c1cc2c3ccccc3n(CCCc3ccccc3)c2c(C)n1 [Compound 59] in your answer.
101 to 102 °C

Please give the documented melting point of CCOC(=O)c1cc2c3ccccc3n(Cc3ccccc3)c2c(C)n1 [Compound 58]
155 to 156 °C

Fill in melting point for record CCOC(=O)c1cc2c([nH]c3ccccc32)c(CC)n1 [Compound 12, ethyl 1-ethyl-β-carboline-3-carboxylate]
209 to 210 °C

Name the recorded melting point of the compound listed here: CCCCn1c2ccccc2c2ccncc21 [Compound 83, 9-n-butyl-β-carboline]
78 to 79 °C

Determine its reported melting point: Cc1nc(C(=O)O)cc2c3ccccc3n(Cc3ccccc3)c12 [Compound 64]
246 to 248 °C

Supply recorded melting point for COC(=O)Nc1cc2c(cn1)[nH]c1ccccc12 [Compound 22, 3-[(methoxycarbonyl)amino]-β-carboline] here.
180 to 182 °C

Determine its reported melting point: CCn1c2ccccc2c2cc(C(=O)O)ncc21 [Compound 35, 9-ethyl-β-carboline-3-carboxylic acid]
201 to 202 °C

Name the recorded melting point of the item CCCc1nc(C(=O)OCC)cc2c1[nH]c1ccccc12 [Compound 13, ethyl 1-propyl-β-carboline-3-carboxylate] in your answer.
194 to 195 °C

// provenance: patent US20090227619A1
